Answer each item with its documented IC50.
System tested: human MER (528-end) (Homo sapiens, UniProt Q12866)
Construct: human MER (528-end); purchased Camnabio, Japan
Sequence (Q12866 528-999 limits assumed): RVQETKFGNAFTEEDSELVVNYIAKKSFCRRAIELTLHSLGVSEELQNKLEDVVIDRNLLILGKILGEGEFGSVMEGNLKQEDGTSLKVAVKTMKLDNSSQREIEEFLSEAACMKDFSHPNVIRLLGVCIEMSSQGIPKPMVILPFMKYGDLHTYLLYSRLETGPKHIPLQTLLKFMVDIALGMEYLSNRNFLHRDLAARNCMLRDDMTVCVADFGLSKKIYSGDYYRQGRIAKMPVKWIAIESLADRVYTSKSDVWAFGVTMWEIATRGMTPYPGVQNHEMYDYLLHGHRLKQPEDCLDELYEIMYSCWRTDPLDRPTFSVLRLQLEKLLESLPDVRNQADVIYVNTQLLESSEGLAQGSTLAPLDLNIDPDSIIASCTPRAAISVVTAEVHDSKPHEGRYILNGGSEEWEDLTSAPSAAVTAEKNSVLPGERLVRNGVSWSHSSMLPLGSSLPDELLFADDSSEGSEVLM
Measurement notes: HTRF kinase activity biochemical assay, MER
Applied conditions: 10 μM ATP, 30 minutes pre-incubation; read-out: HTRF MERTK IC50

Record CC1(C)OCC(CN2CCN(C3CCc4cc(-c5ccc(CO[C@H]6CCC[C@@H]6NC(=O)c6cc(-c7ccc(F)nc7)cnc6N)cc5)ccc43)CC2)O1 (stereo partly drawn) [Example 78] . Reported IC50: < 10 nM

Record Cn1cc(-c2cnc(N)c(C(=O)N[C@H]3CCC[C@@H]3OCc3ccc(-c4ccc5[nH]c(C(F)(F)F)cc5c4)cc3)c2)cn1 [Example 53] . Reported IC50: 100 to 1000 nM

Record Cn1cc(-c2cnc(N)c(C(=O)N[C@H]3CCC[C@@H]3OCc3ccc(-c4cnc5c(c4)C(C)(C)CN5C4CCN(CCO)CC4)cc3)c2)cn1 [Example 77] . Reported IC50: < 10 nM

Record Cn1cc(-c2cnc(N)c(C(=O)N[C@H]3CCC[C@@H]3OCc3ccc(-c4ccc5c(c4)C[C@H](F)[C@@H]5N4CCN(CCO)CC4)cc3)c2)ccc1=O (relative stereo) [Example 90] . Reported IC50: < 10 nM

Record Cn1cc(-c2cnc(N)c(C(=O)N[C@H]3CCC[C@@H]3OCc3ccc(-c4ccc5c(c4)C(C)(C)CCN5C4CCN(CCO)CC4)cc3)c2)cn1 [Example 114] . Reported IC50: < 10 nM

Record Cn1cc(-c2cnc(N)c(C(=O)N[C@H]3CCC[C@@H]3OCc3ccc(-c4ccc5c(c4)C4(CC4)CN5C4CCN(CCO)CC4)cc3)c2)cn1 [Example 28] . Reported IC50: 10 to 100 nM

Record CN(CCC(O)CO)C1CCc2cc(-c3ccc(CO[C@H]4CCC[C@@H]4NC(=O)c4cc(-c5ccc(F)nc5)cnc4N)cc3)ccc21 (stereo partly drawn) [Example 126] . Reported IC50: 10 to 100 nM

Record Nc1ncc(-c2cccnc2F)cc1C(=O)N[C@H]1CCC[C@@H]1OCc1ccc(-c2ccc3c(c2)CC[C@@H]3N2CCN(C(CO)CO)CC2)cc1 [Example 129] . Reported IC50: < 10 nM

Record COc1c(-c2cnn(C)c2)cnc(N)c1C(=O)N[C@H]1CCC[C@@H]1OCc1ccc(-c2ccc3c(c2)CC[C@@H]3N2CCN(CCO)CC2)cc1 [Example 155] . Reported IC50: < 10 nM

Record CN1CCC(N2CC(C)(C)c3cc(-c4ccc(CO[C@H]5CCC[C@@H]5NC(=O)c5cc(-c6cnn(C)c6)cnc5N)cc4)ccc32)CC1 [Example 12] . Reported IC50: < 10 nM

Record Cn1cc(-c2cnc(N)c(C(=O)N[C@H]3COC[C@@H]3OCc3ccc(-c4ccc5c(c4)CCC5N4CCN(CCO)CC4)cc3)c2)cn1 (stereo partly drawn) [Example 18] . Reported IC50: < 10 nM

Record Nc1ncc(-c2cncc(F)c2)cc1C(=O)N[C@H]1CCC[C@@H]1OCc1ccc(-c2ccc3c(c2)OCCC3N2CCN(CCO)CC2)cc1 (stereo partly drawn) [Example 132] . Reported IC50: < 10 nM

Record Nc1ncc(-c2cccnc2F)cc1C(=O)N[C@H]1CCC[C@@H]1OCc1ccc(-c2ccc3c(c2)CC[C@@H]3N2CCN3C[C@H](O)C[C@H]3C2)cc1 [Example 160] . Reported IC50: < 10 nM

Record Cn1cc(-c2cnc(N)c(C(=O)N[C@H]3CCC[C@@H]3OCc3ccc(-c4ccc5c(c4)NC(=O)C5N4CCN(CCO)CC4)cc3)c2)cn1 (stereo partly drawn) [Example 69] . Reported IC50: 100 to 1000 nM

Record Cn1cc(-c2cnc(N)c(C(=O)N[C@H]3CCC[C@@H]3OCc3ccc(-c4ccc5c(c4)C(C)(C)CN5C4CCN(CC(O)CO)CC4)cc3)c2)cn1 (stereo partly drawn) [Example 23] . Reported IC50: < 10 nM
